Method Description: Cytotoxicity against human THP1 cells assessed as growth inhibition after 48 hrs by MTT assay
Format: cell-based, THP-1
Condition Notes: THP1 cells
Could you mark each record true if its GI50 at 48 h falls strictly under 30 µg/mL, and false if it equals or exceeds it?

1) O=[N+]([O-])c1ccc(Cn2cc(COc3ccccc3)nn2)cc1 ... false
2) CC(=O)O[C@H]1C(=O)[C@@]2(C)[C@H]([C@H](OC(=O)c3ccccc3)[C@]3(O)C[C@H](OC(=O)[C@H](O)[C@@H](NC(=O)c4ccccc4)c4ccccc4)C(C)=C1C3(C)C)[C@]1(OC(C)=O)CO[C@@H]1C[C@@H]2O ... true
3) Clc1ccc(OCc2cn(Cc3cccc(Cl)c3)nn2)cc1 ... true
4) Cc1cc(OCc2cn(Cc3ccc(Cl)cc3)nn2)ccc1Cl ... false
5) Cc1ccc(OCc2cn(Cc3ccc(Cl)cc3)nn2)cc1 ... false
6) Clc1cccc(Cn2cc(COc3ccccc3)nn2)c1 ... true
7) Cc1cc(OCc2cn(Cc3ccc([N+](=O)[O-])cc3)nn2)ccc1Cl ... true
8) Clc1cc(Cl)c(OCc2cn(Cc3ccc(Br)cc3)nn2)c(Cl)c1 ... false
9) O=[N+]([O-])c1cccc(Cn2cc(COc3ccc(Cl)cc3)nn2)c1 ... false
10) Clc1ccc(Cn2cc(COc3ccccc3)nn2)cc1 ... false
11) Brc1ccc(Cn2cc(COc3ccccc3)nn2)cc1 ... true
12) Clc1ccc(Cn2cc(COc3ccc(Cl)cc3)nn2)cc1 ... true
13) Clc1ccc(Cn2cc(COc3c(Cl)cc(Cl)cc3Cl)nn2)cc1 ... true
14) Clc1ccc(OCc2cn(Cc3ccc(Br)cc3)nn2)cc1 ... false
15) Cc1ccc(OCc2cn(Cc3ccc([N+](=O)[O-])cc3)nn2)cc1 ... true
16) O=[N+]([O-])c1ccc(Cn2cc(COc3ccc(Cl)cc3)nn2)cc1 ... false
17) Cc1ccc(OCc2cn(Cc3cccc(Cl)c3)nn2)cc1 ... false
